# assay summary: Toxicity in Mus musculus ddY (mouse) assessed as mortality at 375 mg/kg, ip after 7 days
# Assay type: organism-based
# Parameters: dose 375 mg/kg, route intraperitoneal
# cond: in vivo
measure: mortality at 168 h (%)
Return type: number; implicit unit %.

Query O=C1CSC(=S)N1 [RHODANINE] yields mortality at 168 h of 100

---

# assay summary: Toxicity in Mus musculus ddY (mouse) assessed as mortality at 500 mg/kg, ip after 2 days
# Format: organism-based
# Parameters: dose 500 mg/kg, route intraperitoneal
# cond: in vivo
measure: mortality at 48 h (%)
Return type: number; implicit unit %.

Query `O=C(O)CN1C(=O)CSC1=S` yields mortality at 48 h of 20

---

# assay summary: Toxicity in Mus musculus ddY (mouse) assessed as mortality at 275 mg/kg, ip after 5 days
# Type: organism-based
# Design: dose 275 mg/kg, route intraperitoneal
# cond: in vivo
measure: mortality at 120 h (%)
Return type: number; implicit unit %.

Query CN1C(=O)CSC1=S [3-METHYL-RHODANINE] yields mortality at 120 h of 80

Query O=C1CSC(=S)N1 [RHODANINE] yields mortality at 120 h of 0

---

# assay summary: Toxicity in Mus musculus ddY (mouse) assessed as mortality at 300 mg/kg, ip after 4 days
# Format: organism-based
# Set-up: dose 300 mg/kg, route intraperitoneal
# cond: in vivo
measure: mortality at 96 h (%)
Return type: number; implicit unit %.

Query `O=C1CSC(=S)N1` yields mortality at 96 h of 40

Query `CN1C(=O)CSC1=S` yields mortality at 96 h of 80

---

# assay summary: Toxicity in Mus musculus ddY (mouse) assessed as mortality at 500 mg/kg, ip after 4 days
# Format: organism-based
# Parameters: dose 500 mg/kg, route intraperitoneal
# cond: in vivo
measure: mortality at 96 h
# answer = value followed by unit

Query O=C(O)CN1C(=O)CSC1=S [RHODANINE-3-ACETIC ACID] yields mortality at 96 h of 20%

---

# assay summary: Toxicity in Mus musculus ddY (mouse) assessed as mortality at 275 mg/kg, ip after 3 days
# Type: organism-based
# Design: dose 275 mg/kg, route intraperitoneal
# cond: in vivo
Exercise: for every item that follows, state its recorded mortality at 72 h.
Return type: number; implicit unit %.

Query CN1C(=O)CSC1=S [3-METHYL-RHODANINE] yields mortality at 72 h of 80

Query O=C1CSC(=S)N1 [RHODANINE] yields mortality at 72 h of 0

---

# assay summary: Toxicity in Mus musculus ddY (mouse) assessed as mortality at 300 mg/kg, ip after 2 days
# Format: organism-based
# Design: dose 300 mg/kg, route intraperitoneal
# cond: in vivo
Exercise: for every item that follows, state its recorded mortality at 48 h.
Return type: number; implicit unit %.

Query `O=C1CSC(=S)N1` yields mortality at 48 h of 40

Query `CN1C(=O)CSC1=S` yields mortality at 48 h of 80

---

# assay summary: Toxicity in Mus musculus ddY (mouse) assessed as mortality at 8 mg/kg, ip after 4 days
# Type: organism-based
# Set-up: dose 8 mg/kg, route intraperitoneal
# cond: in vivo
measure: mortality at 96 h (%)
Return type: number; implicit unit %.

Query NN1C(=O)CSC1=S [AMINORHODANINE] yields mortality at 96 h of 100

---

# assay summary: Toxicity in Mus musculus ddY (mouse) assessed as mortality at 500 mg/kg, ip after 5 days
# Type: organism-based
# Design: dose 500 mg/kg, route intraperitoneal
# cond: in vivo
measure: mortality at 120 h
# answer = value followed by unit

Query O=C(O)CN1C(=O)CSC1=S [RHODANINE-3-ACETIC ACID] yields mortality at 120 h of 20%

---

# assay summary: Toxicity in Mus musculus ddY (mouse) assessed as mortality at 3 mg/kg, ip after 5 days
# Assay type: organism-based
# Set-up: dose 3 mg/kg, route intraperitoneal
# cond: in vivo
measure: mortality at 120 h (%)
Return type: number; implicit unit %.

Query `NN1C(=O)CSC1=S` yields mortality at 120 h of 0

---

# assay summary: Toxicity in Mus musculus ddY (mouse) assessed as mortality at 3 mg/kg, ip after 1 day
# Type: organism-based
# Design: dose 3 mg/kg, route intraperitoneal
# cond: in vivo
measure: mortality at 24 h (%)
Return type: number; implicit unit %.

Query NN1C(=O)CSC1=S [AMINORHODANINE] yields mortality at 24 h of 0

---

# assay summary: Toxicity in Mus musculus ddY (mouse) assessed as mortality at 325 mg/kg, ip after 1 day
# Type: organism-based
# Design: dose 325 mg/kg, route intraperitoneal
# cond: in vivo
measure: mortality at 24 h (%)
Return type: number; implicit unit %.

Query `CN1C(=O)CSC1=S` yields mortality at 24 h of 60

Query `O=C1CSC(=S)N1` yields mortality at 24 h of 40

---

# assay summary: Toxicity in Mus musculus ddY (mouse) assessed as mortality at 250 mg/kg, ip after 6 days
# Type: organism-based
# Parameters: dose 250 mg/kg, route intraperitoneal
# cond: in vivo
measure: mortality at 144 h (%)
Return type: number; implicit unit %.

Query CN1C(=O)CSC1=S [3-METHYL-RHODANINE] yields mortality at 144 h of 40

---

# System: Brassica rapa subsp. oleifera
# assay summary: Growth inhibition of Brassica rapa subsp. oleifera assessed as total chlorophyll level at 3 x 10^-5 M after 7 days
# Assay type: functional
# Design: scale not given: the % may be the effect or the level left
measure: Activity

Query CC(=O)NN1C(=O)CSC1=S [N-ACETYLAMINORHODANINE] yields Activity of 20.31%

Query NN1C(=O)CSC1=S [AMINORHODANINE] yields Activity of 15.83%

Query `O=C([O-])COc1ccc(Cl)cc1Cl.[Na+]` yields Activity of 25.12%

Query CN1C(=O)CSC1=S [3-METHYL-RHODANINE] yields Activity of 19.75%

Query O=C(O)CN1C(=O)CSC1=S [RHODANINE-3-ACETIC ACID] yields Activity of 25.06%

Query O=C1CSC(=S)N1 [RHODANINE] yields Activity of 19.19%

Query O=C(NN1C(=O)CSC1=S)c1ccccc1 [N-BENZOYLAMINORHODANINE] yields Activity of 21.24%

---

# assay summary: Toxicity in Mus musculus ddY (mouse) assessed as mortality at 8 mg/kg, ip after 3 days
# Format: organism-based
# Set-up: dose 8 mg/kg, route intraperitoneal
# cond: in vivo
measure: mortality at 72 h (%)
Return type: number; implicit unit %.

Query `NN1C(=O)CSC1=S` yields mortality at 72 h of 100

---

# assay summary: Toxicity in Mus musculus ddY (mouse) assessed as mortality at 200 mg/kg, ip after 4 days
# Type: organism-based
# Parameters: dose 200 mg/kg, route intraperitoneal
# cond: in vivo
measure: mortality at 96 h

Query `CN1C(=O)CSC1=S` yields mortality at 96 h of 0%

---

# assay summary: Toxicity in Mus musculus ddY (mouse) assessed as mortality at 600 mg/kg, ip after 2 days
# Assay type: organism-based
# Parameters: dose 600 mg/kg, route intraperitoneal
# cond: in vivo
measure: mortality at 48 h (%)
Return type: number; implicit unit %.

Query O=C(O)CN1C(=O)CSC1=S [RHODANINE-3-ACETIC ACID] yields mortality at 48 h of 60

---

# assay summary: Toxicity in Mus musculus ddY (mouse) assessed as mortality at 200 mg/kg, ip after 2 days
# Format: organism-based
# Parameters: dose 200 mg/kg, route intraperitoneal
# cond: in vivo
measure: mortality at 48 h (%)
Return type: number; implicit unit %.

Query `CN1C(=O)CSC1=S` yields mortality at 48 h of 0

---

# assay summary: Toxicity in Mus musculus ddY (mouse) assessed as mortality at 6 mg/kg, ip after 3 days
# Assay type: organism-based
# Parameters: dose 6 mg/kg, route intraperitoneal
# cond: in vivo
measure: mortality at 72 h (%)
Return type: number; implicit unit %.

Query `NN1C(=O)CSC1=S` yields mortality at 72 h of 60

---

# assay summary: Toxicity in Mus musculus ddY (mouse) assessed as mortality at 550 mg/kg, ip after 1 day
# Format: organism-based
# Set-up: dose 550 mg/kg, route intraperitoneal
# cond: in vivo
measure: mortality at 24 h (%)
Return type: number; implicit unit %.

Query `O=C(O)CN1C(=O)CSC1=S` yields mortality at 24 h of 0

---

# assay summary: Toxicity in Mus musculus ddY (mouse) assessed as mortality at 225 mg/kg, ip after 7 days
# Assay type: organism-based
# Set-up: dose 225 mg/kg, route intraperitoneal
# cond: in vivo
measure: mortality at 168 h (%)
Return type: number; implicit unit %.

Query CN1C(=O)CSC1=S [3-METHYL-RHODANINE] yields mortality at 168 h of 20

Source of measurements: ChEMBL document CHEMBL3044763
